System: Staphylococcus aureus Smith (MSSA)
assay.overview: Broth microdilution MIC, S. aureus Smith
Type: cell-based
reported.conditions: Staphylococcus aureus Smith (MSSA); read-out: MIC S. a. Smith
Procedure: Compounds were evaluated for antimicrobial activity against a panel of bacterial strains using a broth microdilution assay performed as recommended by the NCCLS (NCCLS (National Committee for Clinical Laboratory Standards). 1993. Methods for dilution antimicrobial susceptibility tests for bacteria that grow aerobically. NCCLS Document M7-A3, 1993. In: NCCLS Antimicrobial Susceptibility Testing, 3rd Ed.) […]
Recorded MIC values for a group of compounds are listed next.
Please give a number only; it is taken to be in µg/mL.

// known answers, use as guide
- compound: "Nc1nc(C(=NO)C(=O)N[C@@H]2C(=O)N3C(C(=O)O)=C(Sc4nncs4)CSC23)c(Cl)s1 (some centres unmarked)"
  numeric.value: 0.125
- compound: "Nc1nnc(SC2=C(C(=O)O)N3C(=O)[C@@H](NC(=O)C(=NO)c4nc(N)sc4Cl)C3SC2)s1 (some centres unmarked)"
  numeric.value: 0.25
- compound: "Cc1nnsc1SC1=C(C(=O)O)N2C(=O)[C@@H](NC(=O)C(=NO)c3nc(N)sc3Cl)C2SC1 (some centres unmarked)"
  numeric.value: 0.125
- compound: "CC(C)(C)O/N=C(\\C(=O)N[C@@H]1C(=O)N2C(C(=O)O)=C(Sc3ccnn3-c3ccccc3)CS[C@H]12)c1csc(N)n1"
  numeric.value: 1
- compound: "Cc1noc(SC2=C(C(=O)O)N3C(=O)[C@@H](NC(=O)C(=NO)c4nc(N)sc4Cl)C3SC2)n1 (some centres unmarked)"
  numeric.value: 1

Q: Name the recorded MIC of the item Nc1nnc(SC2=C(C(=O)O)N3C(=O)[C@@H](NC(=O)C(=NOCCF)c4nc(N)sc4Cl)C3SC2)s1 (some centres unmarked) in your answer.
Ans: 0.25

Q: Give reported MIC value for Nc1nc(/C(=N/OC2CCCC2)C(=O)N[C@@H]2C(=O)N3C(C(=O)O)=C(Sc4ccnn4-c4ccccc4)CS[C@H]23)cs1
Ans: 0.5

Q: Supply measured MIC of C[C@@H](O)[C@H]1C(=O)N2C(C(=O)O)=C(SCCN=CN)C[C@H]12 [Imipenem, reference compound] in your reply.
Ans: 0.25

Q: Report measured MIC; entry is Nc1nc(/C(=N/OCCF)C(=O)N[C@@H]2C(=O)N3C(C(=O)O)=C(Sc4ccnn4-c4ccccc4)CS[C@H]23)c(Cl)s1
Ans: 0.5

Q: Report MIC for Nc1nc(C(=NO)C(=O)N[C@@H]2C(=O)N3C(C(=O)O)=C(Sc4nnc(N)s4)CSC23)ns1 (some centres unmarked)
Ans: 0.125

Q: Give recorded MIC. Nc1nc(/C(=N/O)C(=O)N[C@@H]2C(=O)N3C(C(=O)O)=C(Sc4ccncc4CO)CS[C@H]23)c(Cl)s1
Ans: 0.125

Q: Please supply the value of reported MIC for the item Nc1nc(/C(=N/O)C(=O)N[C@@H]2C(=O)N3C(C(=O)O)=C(Sc4ccncc4)CS[C@H]23)c(Cl)s1
Ans: 0.25

Q: Give a short answer stating reported MIC for Nc1nc(CC(=O)N[C@@H]2C(=O)N3C(C(=O)O)=C(Sc4nnc(N)s4)CSC23)cs1 (some centres unmarked) .
Ans: 0.06

Q: Answer with the recorded MIC for the compound listed here: Nc1nc(/C(=N/OCC2CC2)C(=O)N[C@@H]2C(=O)N3C(C(=O)O)=C(Sc4ccnn4-c4ccccc4)CS[C@H]23)cs1
Ans: 0.5
